target: hGALR-1 contained in membranes from human Bowes melanoma cells (Homo sapiens); construct: hGALR-1 that is contained in membranes from human Bowes melanoma cells; endogenous in cells; host or cells: human Bowes melanoma cells (membranes); experiment: Human Galanin-1 Receptor Binding Assay (SPA, 125I human galanin); conditions: Table I, formula (I) compounds; inhibition of 125I human galanin binding; read-out: HGAL IC50
Sequence (P47211 whole entry): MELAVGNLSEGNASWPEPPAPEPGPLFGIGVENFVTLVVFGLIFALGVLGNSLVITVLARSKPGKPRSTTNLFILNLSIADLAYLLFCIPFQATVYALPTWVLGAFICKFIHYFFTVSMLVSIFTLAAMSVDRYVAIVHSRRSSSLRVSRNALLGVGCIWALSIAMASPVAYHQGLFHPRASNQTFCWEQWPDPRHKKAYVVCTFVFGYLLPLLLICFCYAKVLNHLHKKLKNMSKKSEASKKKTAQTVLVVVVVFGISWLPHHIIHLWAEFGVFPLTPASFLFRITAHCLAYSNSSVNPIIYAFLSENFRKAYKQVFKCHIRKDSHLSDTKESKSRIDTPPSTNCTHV
readout.kind: IC50 (nM)
Give the value in nM but do not write nM after it.

// query State its IC50 on hGALR-1 contained in membranes from human Bowes melanoma cells (Homo sapiens): O=S1(=O)C=C(c2ccc(Br)cc2)S(=O)(=O)CC1
// result 1000
